System: Haemophilus influenzae 76
Experiment: MIC, standard agar-dilution assay
Type: cell-based
reported.endpoint: MIC

So what's the measured MIC for this one? CCCCCCCCc1ccc(CNC2(C)CC(OC3C(Oc4c5cc6cc4Oc4ccc(cc4Cl)C(O)C4NC(=O)C(NC(=O)C6NC(=O)C(CC(N)=O)NC(=O)C(NC(=O)C(CC(C)C)NC)C(O)c6ccc(c(Cl)c6)O5)c5ccc(O)c(c5)-c5c(O)cc(O)cc5C(C(=O)O)NC4=O)OC(CO)C(O)C3O)OC(C)C2O)cc1 (stereo not drawn)
> 128 µg/mL

So what's the measured MIC for this one? CCCCCCCCOc1ccc(CNC2(C)CC(OC3C(Oc4c5cc6cc4Oc4ccc(cc4Cl)C(O)C4NC(=O)C(NC(=O)C6NC(=O)C(CC(N)=O)NC(=O)C(NC(=O)C(CC(C)C)NC)C(O)c6ccc(c(Cl)c6)O5)c5ccc(O)c(c5)-c5c(O)cc(O)cc5C(C(=O)O)NC4=O)OC(CO)C(O)C3O)OC(C)C2O)cc1 (stereo not drawn)
> 128 µg/mL

So what's the measured MIC for this one? CCCCCCCCCCNC1(C)CC(OC2C(Oc3c4cc5cc3Oc3ccc(cc3Cl)C(O)C(NC(=O)C(CC(C)C)N(C)CCCCCCCCCC)C(=O)NC(CC(N)=O)C(=O)NC5C(=O)NC3C(=O)NC(C(=O)NC(C(=O)O)c5cc(O)cc(O)c5-c5cc3ccc5O)C(O)c3ccc(c(Cl)c3)O4)OC(CO)C(O)C2O)OC(C)C1O (stereo not drawn)
> 128 µg/mL

Data origin, for the record: patent US4698327A
